biological target: MMP-9 (Homo sapiens); construct: from tissue; host or cells: human polymorphonuclear leukocytes (PMN) from whole blood (New York Blood Center), PMA-stimulated supernatant; test: Automated MMP Profiling Assay, MMP-9 fluorogenic; assay type: biochemical; details: 96-well automated, P218
Sequence (P14780 107-707 limits assumed): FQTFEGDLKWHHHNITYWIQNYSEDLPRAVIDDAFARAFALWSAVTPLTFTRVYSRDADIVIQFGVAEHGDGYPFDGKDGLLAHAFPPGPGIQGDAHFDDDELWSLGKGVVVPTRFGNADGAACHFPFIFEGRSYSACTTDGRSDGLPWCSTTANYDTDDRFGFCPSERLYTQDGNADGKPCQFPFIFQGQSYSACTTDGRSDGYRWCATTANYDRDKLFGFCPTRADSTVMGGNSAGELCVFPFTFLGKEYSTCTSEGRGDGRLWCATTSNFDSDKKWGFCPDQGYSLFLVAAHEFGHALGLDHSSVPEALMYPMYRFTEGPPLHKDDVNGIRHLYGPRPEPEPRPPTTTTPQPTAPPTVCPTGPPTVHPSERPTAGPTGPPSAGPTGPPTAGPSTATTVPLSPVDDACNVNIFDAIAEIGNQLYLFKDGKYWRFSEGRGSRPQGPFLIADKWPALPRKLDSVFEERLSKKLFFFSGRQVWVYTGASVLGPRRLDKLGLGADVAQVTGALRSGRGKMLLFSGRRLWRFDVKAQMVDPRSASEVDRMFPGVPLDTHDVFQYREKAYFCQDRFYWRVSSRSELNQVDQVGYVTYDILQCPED
pIC50: −log10 of the molar value.
Label t when pIC50 is at or above 7; otherwise label f.

Compound: CCCCOc1ccc(-c2ccc(C(=O)CC(CCc3ccccc3)C(=O)O)cc2)cc1 (stereo not drawn) [Example 160]
Qualitative label: f
--
Compound: O=C(CC(CCN1C(=O)c2ccc(OCc3ccccc3)cc2C1=O)C(=O)O)c1ccc(-c2ccc(Cl)cc2)cc1 (stereo not drawn) [Example 405]
Qualitative label: t
--
Compound: O=C(O)[C@H]1[C@H](CN2C(=O)c3ccccc3C2=O)CC[C@@H]1C(=O)c1ccc(-c2ccc(Cl)cc2)cc1 [Example 361]
Qualitative label: t
--
Compound: O=C(O)[C@@H]1[C@@H](Sc2ccccc2)CC[C@H]1C(=O)c1ccc(-c2ccc(Cl)cc2)cc1 [Example 297]
Qualitative label: f
--
Compound: O=C(CC(CCc1ccccc1)C(=O)O)c1ccc(-c2ccc(O)cc2)cc1 (stereo not drawn) [Example 155]
Qualitative label: f
--
Compound: COc1ccc(-c2ccc(C(=O)CC(CCc3ccccc3)C(=O)O)cc2)cc1 (stereo not drawn) [Example 154]
Qualitative label: f
--
Compound: O=C(CC(CCSc1ccccc1)C(=O)O)c1ccc(-c2ccc(Cl)cc2)cc1 (stereo not drawn) [Example 426]
Qualitative label: f
--
Compound: CCCCC#Cc1ccc(-c2ccc(C(=O)CC(CCCc3ccccc3)C(=O)O)cc2)cc1 (stereo not drawn) [Example 352]
Qualitative label: f
--
Compound: O=C(CC(CCN1C(=O)c2ccccc2C1=O)C(=O)O)c1ccc(-c2ccc(Br)cc2)cc1 (stereo not drawn) [Example 270]
Qualitative label: t
--
Compound: CCCCNC(=O)c1cccc(CCC(CC(=O)c2ccc(-c3ccc(Cl)cc3)cc2)C(=O)O)c1 (stereo not drawn) [Example 150]
Qualitative label: f
--
Compound: O=C(C[C@@H](CCCc1ccccc1)C(=O)O)c1ccc(-c2ccc(Cl)cc2)cc1 [Example 115]
Qualitative label: f
--
Compound: COC(=O)c1cc(F)ccc1SCC(CC(=O)c1ccc(-c2ccc(Cl)cc2)cc1)C(=O)O (stereo not drawn) [Example 434]
Qualitative label: f
--
Compound: CCCCNC(=O)c1ccccc1CCC(CC(=O)c1ccc(-c2ccc(Cl)cc2)cc1)C(=O)O (stereo not drawn) [Example 147]
Qualitative label: f
--
Compound: O=C(CC(CCN1C(=O)c2cccc(OCc3ccccc3)c2C1=O)C(=O)O)c1ccc(-c2ccc(Cl)cc2)cc1 (stereo not drawn) [Example 407]
Qualitative label: t
--
Compound: O=C(O)[C@H]1[C@H](CN2C(=O)c3ccccc3C2=O)CC[C@@H]1C(=O)c1ccc(-c2ccc(Cl)cc2)cc1 (relative stereo) [Example 360]
Qualitative label: t
--
Compound: CCCCCOc1ccc(-c2ccc(C(=O)CC(CCc3ccccc3)C(=O)O)cc2)cc1 (stereo not drawn) [Example 158]
Qualitative label: f
--
Compound: O=C(CC(CCN1C(=O)CCC1=O)C(=O)O)c1ccc(-c2ccc(Cl)cc2)cc1 (stereo not drawn) [Example 411]
Qualitative label: f
--
Compound: CCN(CC)C(=O)c1ccc(CCC(CC(=O)c2ccc(-c3ccc(Cl)cc3)cc2)C(=O)O)cc1 (stereo not drawn) [Example 151]
Qualitative label: f
--
Compound: CC(C)(C)CC(=O)N1CC[C@H](C(=O)c2ccc(-c3ccc(Cl)cc3)cc2)[C@H]1C(=O)O [Example 171]
Qualitative label: f
